target: human KDR (VEGFR2) on cells (human, UniProt P35968 20-1356); experiment: cell-based or functional assay; note: test concentration or dose not given here
Sequence (P35968 20-1356): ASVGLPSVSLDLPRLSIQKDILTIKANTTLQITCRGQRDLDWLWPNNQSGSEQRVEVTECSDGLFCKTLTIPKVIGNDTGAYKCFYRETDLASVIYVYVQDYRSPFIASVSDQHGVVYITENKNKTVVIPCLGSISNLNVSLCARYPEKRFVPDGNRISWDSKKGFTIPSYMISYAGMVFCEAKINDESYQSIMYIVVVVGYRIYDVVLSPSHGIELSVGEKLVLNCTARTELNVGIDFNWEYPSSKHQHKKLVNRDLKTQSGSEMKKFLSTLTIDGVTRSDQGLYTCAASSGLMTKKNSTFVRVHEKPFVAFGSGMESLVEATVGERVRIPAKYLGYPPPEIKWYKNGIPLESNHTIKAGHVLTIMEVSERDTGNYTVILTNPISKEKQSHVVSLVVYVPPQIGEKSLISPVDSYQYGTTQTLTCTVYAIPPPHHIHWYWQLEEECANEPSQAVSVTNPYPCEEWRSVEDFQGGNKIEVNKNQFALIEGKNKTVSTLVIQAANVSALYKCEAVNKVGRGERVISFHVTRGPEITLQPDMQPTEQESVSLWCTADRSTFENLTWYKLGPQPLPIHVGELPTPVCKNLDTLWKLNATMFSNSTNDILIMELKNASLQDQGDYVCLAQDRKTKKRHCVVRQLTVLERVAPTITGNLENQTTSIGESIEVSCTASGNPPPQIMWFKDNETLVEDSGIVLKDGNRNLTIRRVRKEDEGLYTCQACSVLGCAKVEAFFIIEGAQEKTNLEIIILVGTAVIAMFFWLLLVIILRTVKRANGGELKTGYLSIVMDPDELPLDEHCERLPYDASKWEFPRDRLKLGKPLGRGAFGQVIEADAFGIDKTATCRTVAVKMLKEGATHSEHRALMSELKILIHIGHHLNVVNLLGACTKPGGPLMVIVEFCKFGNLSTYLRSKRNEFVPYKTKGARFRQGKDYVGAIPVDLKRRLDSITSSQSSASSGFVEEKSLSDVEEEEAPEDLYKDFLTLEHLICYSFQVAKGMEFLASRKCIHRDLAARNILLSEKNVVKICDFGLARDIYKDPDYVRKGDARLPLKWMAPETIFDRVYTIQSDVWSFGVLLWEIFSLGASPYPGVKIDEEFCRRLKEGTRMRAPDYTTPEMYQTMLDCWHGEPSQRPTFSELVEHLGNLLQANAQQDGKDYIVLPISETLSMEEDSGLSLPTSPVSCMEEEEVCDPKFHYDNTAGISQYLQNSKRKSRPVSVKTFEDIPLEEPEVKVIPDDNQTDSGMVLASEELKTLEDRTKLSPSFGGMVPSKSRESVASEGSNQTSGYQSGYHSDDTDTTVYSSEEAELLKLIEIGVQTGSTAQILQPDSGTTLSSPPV
Give % Inhibition of VEGF-E-mediated pTyr Activity for every item shown.
Give bare numbers, in %.

Give % Inhibition of VEGF-E-mediated pTyr Activity for all binders that follow.
1. anti-KDR monoclonal antibody 27A3 (antibody, V domains shown, Fully human mAb from XenoMouse (IgG2 or IgG4 strain); hybridoma supernatant) VH: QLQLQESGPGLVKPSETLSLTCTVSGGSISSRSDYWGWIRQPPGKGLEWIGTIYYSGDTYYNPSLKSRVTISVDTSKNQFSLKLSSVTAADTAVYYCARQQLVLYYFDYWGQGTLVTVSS VL: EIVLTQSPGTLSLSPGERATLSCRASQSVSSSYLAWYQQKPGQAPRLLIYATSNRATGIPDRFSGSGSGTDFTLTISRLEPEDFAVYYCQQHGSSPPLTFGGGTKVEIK
2. anti-KDR monoclonal antibody 24C9 (antibody, V domains shown, Fully human mAb from XenoMouse (IgG2 or IgG4 strain); hybridoma supernatant) VH: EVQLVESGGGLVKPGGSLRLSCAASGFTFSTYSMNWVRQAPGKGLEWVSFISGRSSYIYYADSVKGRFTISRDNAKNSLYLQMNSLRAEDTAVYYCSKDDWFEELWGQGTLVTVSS VL: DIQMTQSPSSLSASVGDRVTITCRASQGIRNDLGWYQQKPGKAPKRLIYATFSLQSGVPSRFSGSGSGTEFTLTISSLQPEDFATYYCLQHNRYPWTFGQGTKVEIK
3. anti-KDR monoclonal antibody 32F4 (antibody, V domains shown, Fully human mAb from XenoMouse (IgG2 or IgG4 strain); hybridoma supernatant) VH: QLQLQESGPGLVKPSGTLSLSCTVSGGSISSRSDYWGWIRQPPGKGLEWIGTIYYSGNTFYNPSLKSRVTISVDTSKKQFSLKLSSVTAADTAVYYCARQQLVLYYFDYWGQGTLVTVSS VL: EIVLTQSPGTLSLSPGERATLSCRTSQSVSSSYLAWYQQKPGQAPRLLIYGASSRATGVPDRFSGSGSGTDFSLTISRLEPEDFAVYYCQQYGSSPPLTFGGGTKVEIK
4. anti-KDR monoclonal antibody 29A3 (antibody, V domains shown, Fully human mAb from XenoMouse (IgG2 or IgG4 strain); hybridoma supernatant) VH: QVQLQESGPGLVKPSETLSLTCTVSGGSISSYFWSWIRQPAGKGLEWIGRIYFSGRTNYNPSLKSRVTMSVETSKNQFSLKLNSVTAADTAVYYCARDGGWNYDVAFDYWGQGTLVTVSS VL: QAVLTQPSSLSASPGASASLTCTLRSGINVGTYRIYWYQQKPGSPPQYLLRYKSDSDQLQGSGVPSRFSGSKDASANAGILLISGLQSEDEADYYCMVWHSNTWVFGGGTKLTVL

Output:
1. 60
2. 51
3. 62
4. 22

Input: Form field: reported % Inhibition of VEGF-E-mediated pTyr Activity of anti-KDR monoclonal antibody 32G7 (antibody, V domains shown, Fully human mAb from XenoMouse (IgG2 or IgG4 strain); hybridoma supernatant) VH: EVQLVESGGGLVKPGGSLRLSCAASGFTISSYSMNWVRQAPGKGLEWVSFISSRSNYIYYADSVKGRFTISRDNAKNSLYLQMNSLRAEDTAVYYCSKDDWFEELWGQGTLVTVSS VL: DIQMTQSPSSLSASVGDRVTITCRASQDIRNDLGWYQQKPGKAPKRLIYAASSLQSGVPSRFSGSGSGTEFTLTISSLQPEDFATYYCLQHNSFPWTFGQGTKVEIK
Output: 57
